The entries below are paired with their reported TGI.
System: HL-60(TB) leukemia
Test: NCI tumour cell line growth inhibition, 48 h

Compound	TGI
COc1ccc(/C=c2\c(=O)[nH]c3nc4ccccc4c(=O)n23)cc1	> 100 µM
COC(=O)C1(NC(=O)C(Cc2ccccc2)N(C(=O)OC(C)(C)C)C(=O)OC(C)(C)C)CCCC1 (stereo unspecified)	62.1 µM
COc1ccc(C2=Nc3c(nc(OC)[nH]c3=O)NC(c3ccccc3)C2)cc1 (stereo unspecified)	56.9 µM
CNC(=O)c1n[nH]n(C2CCCCC2)c1=S	> 100 µM
O=NN1C(c2ccccc2)CNC(=O)CC1c1ccccc1 (stereo unspecified)	> 68.8 µM
Cc1nc(N)nc(N)c1CCCCc1ccc(N)cc1	19.4 µM
O=C1CC(c2c[nH]c3ccc(F)cc23)C(=O)N1 (stereo unspecified)	> 100 µM
COC1C2C[C@@H](O)CCC2C(C(=O)OCCl)C[C@H]1O (stereo partly specified)	> 100 µM
COc1ccc(-c2cc(-c3ccc(Nc4nc(Nc5ccccc5)nc(Nc5ccc(Cl)cc5)n4)cc3)nc(N)n2)cc1	17.9 µM
O=C1Nc2ccc(Br)cc2C12CC(c1ccccc1)=NN2 (stereo unspecified)	8.47 µM
CC(C)c1cccc(C(C)C)c1NC(=O)C(=O)Cc1nc2ccc([N+](=O)[O-])cc2[nH]c1=O	> 100 µM
COc1ccc2c(c1)OC(N)=C(C#N)C2c1cc(OC)c(OC)c(OC)c1 (stereo unspecified)	0.068 µM
C1CNOCCCONCCCNOCCCONC1	> 100 µM
Nc1nc2c(N)cc(C(F)(F)F)cc2nc1-c1ccccc1	> 100 µM
CCN(CC)CCCNc1c2c(Cl)cc(Cl)cc2nc2nc(=O)[nH]c(C)c12	> 100 µM
NS(=O)(=O)c1ccc(Nc2cc(-c3ccc(O)c(F)c3)[nH]n2)cc1	> 25 µM
CCOC(=O)C(NC(=O)OCc1ccccc1)C(=O)O (stereo unspecified)	> 100 µM
C/C(=C/C(=O)Nc1ccccc1)Nc1onc(C)c1C	> 100 µM
CC(C)(CN1C(=O)C(Cl)=C(Cl)C1=O)CN1C(=O)C(Cl)=C(Cl)C1=O	2.84 µM
CCCCOCCOCCOC1=CC(=O)c2c(O)ccc(O)c2C1=O	6 µM
CSc1nc(=S)[nH]c2c1c(C)nn2-c1ccccc1	> 100 µM
CC1=NN(c2nc(N)nc(NS(=O)(=O)c3cc(C)c(Cl)cc3S)n2)C(C)(C)C1	> 10 µM
O[C@]12C=C(c3nccc4c3[nH]c3ccccc34)[C@@H]3CCN(CCCC/C=C\CC1)C[C@@]31CC3/C=C\CCCCN3[C@H]12 (stereo partly specified)	1.08 µM
CCOC(=O)C(C)(NC(=O)c1ccc(NCc2ccc3nc(NC(=O)c4ccccc4)nc(NC(=O)c4ccccc4)c3c2)cc1)C(=O)OCC	> 100 µM
COc1cc(-c2cc(/C=C/C(=O)c3ccc(F)c(F)c3)[nH]n2)cc(OC)c1OC	6.03 µM
C[C@@H](CC(O)C(O)C(C)(C)O)C1CCC23CC12CCC1[C@@]2(C)CCC(O)C(C)(C)C2CC(OC2OC(CO)C(O)C(O)C2O)[C@]13C (stereo partly specified)	> 10 µM
CC(=O)Nc1ccc(C(=O)CCl)cc1	5.86 µM
N#CCn1c(=O)c(Oc2ccc(F)cc2F)cc2cnc(NC3CCOCC3)nc21	> 25 µM
CC(C)=CCCC(C)(OC1OC(CO)C(O)C(O)C1O)C1CCC2(C)C1C(O)CC1C3(C)CCC(O)C(C)(C)C3C(OC3OC(CO)C(O)C(O)C3OC3OC(C)C(O)C(O)C3O)CC12C (stereo unspecified) (tested in a mixture with another compound)	> 75 µM
O=C1OC(c2ccccc2)=NC1c1ccccc1 (stereo unspecified)	> 100 µM
OCC1O[C@H](O[C@@H]2CCCN3CC(O)C(O)[C@@H]23)C(O)C(O)C1O (stereo partly specified)	> 100 µM

###

Overview of recorded TGI for various molecules
Test system: HCT-116 colon
Assay: NCI tumour cell line growth inhibition, 48 h
Property Name: TGI

> print(dat)
                                    molecule    test.system  assay.value
 1  CSc1ncnc2c1cnn2Cc1cnnn1COCC(O)CO (stereo not given)  HCT-116 colon     > 100 µM
 2  Nc1nncc2c1c(Br)cn2C1OC(CO)C(O)C1O (stereo not given)  HCT-116 colon     > 100 µM
 3  CC1(C)OP(=O)(c2ccccc2)C=C1Sc1ccc([N+](=O)[O-])cc1[N+](=O)[O-] (stereo not given)  HCT-116 colon     > 100 µM
 4  O=C(Nc1ccc(Oc2ccc(F)cc2)cc1)[C@@H]1C[C@@H](Cc2ccc(F)cc2)CN1C(=O)Cn1ccnn1  HCT-116 colon      17.3 µM
 5  O=C(Cc1ccccc1)NN1C(=O)C(Cl)C1c1ccccc1Cl (stereo not given)  HCT-116 colon     > 100 µM
 6  COc1ccc2c(c1)OC(N)=C(C#N)C2c1cc(OC)c(OC)c(OC)c1 (stereo not given)  HCT-116 colon    > 37.5 µM
 7  COC(=O)c1ccc2c(c1)CC1(C2)Cc2cc3c(cc2C1)CCC3  HCT-116 colon     > 100 µM
 8  O=[N+]([O-])c1ccc(SN=S=NSc2cccc(SN=S=NSc3ccc([N+](=O)[O-])cc3)c2)cc1  HCT-116 colon     > 100 µM
 9  NS(=O)(=O)c1ccc(NC(=O)N/N=C/c2ccccc2O)cc1  HCT-116 colon     > 100 µM
10            N#CCCn1[nH]c(=O)c(Cl)c(Cl)c1=O  HCT-116 colon      29.1 µM

###

Test system: SNB-19 CNS
Assay: NCI tumour cell line growth inhibition, 48 h
Property Name: TGI

> print(dat)
                                   molecule  assay.value
1  COc1ccc(-n2c(CCC(=O)O)nc3c2C(=O)c2ccccc2C3=O)cc1     > 100 µM
2  CN(C)CCNC(=O)c1cccc2c1nc(-c1ccc(F)cc1)c1ccccc12      20.2 µM
3  CCOC(=O)c1c2ccc(/C=C/c3ccccn3)ccc-2c(C(=O)OCC)c1N     > 100 µM
4  COc1ccc2[nH]c3c(c2c1)[C@H](c1ccccc1)C[C@@H]1C(=O)N(c2ccccc2)C(=O)[C@H]31     > 100 µM
5  O=[N+]([O-])c1ccc(C2=Nc3ccccc3S(=O)C(c3ccccc3)C2)cc1 (configuration not stated)        68 µM
6            COc1cc2ccc3c4ccccc4cnc3c2cc1OC     > 100 µM
7  COc1ccc2c(c1)OC(N)=C(C#N)C2c1cc(OC)c(OC)c(OC)c1 (configuration not stated)     > 100 µM

###

Property: TGI; scope: individual compounds
Test system: HT29 colon
Assay: NCI tumour cell line growth inhibition, 48 h
Property Name: TGI

Compound	Test System	Property Name	Assay Value
C/C(=N\O)c1ccc2ccc3ccccc3c2c1	HT29 colon	TGI	> 100 µM
Cc1c(C)c2c(c(N)c1C#N)C(=O)N(O)C2=O	HT29 colon	TGI	> 100 µM
COc1ccc(-n2c(CCC(=O)O)nc3c2C(=O)c2ccccc2C3=O)cc1	HT29 colon	TGI	> 100 µM
CC(C)N(C(=O)C12C3C4C1C1C2C3C41C#N)C(C)C (configuration not stated)	HT29 colon	TGI	> 100 µM
CCOC(=O)[C@@H](C)C[C@H](Cc1ccccc1)NC(=O)c1csc([C@@H](C[C@H](C(C)C)N(C)C(=O)[C@@H](NC(=O)[C@H]2CCCCN2C)C(C)(C)CC)OC(C)=O)n1	HT29 colon	TGI	> 6.79 µM
Cc1ccc(S(=O)c2cccs2)cc1 (configuration not stated)	HT29 colon	TGI	> 100 µM
COC(=O)c1ccc2c(c1)CC1(C2)Cc2cc3c(cc2C1)CCC3	HT29 colon	TGI	> 100 µM
Clc1ccc(Cl)c(N=Nc2cc3c4c(c2)CCN4CCC3)c1	HT29 colon	TGI	> 10 µM
CCOC(=O)c1c2ccc(/C=C/c3ccccn3)ccc-2c(C(=O)OCC)c1N	HT29 colon	TGI	> 100 µM
O=C1CC2OCC=C3CN4CCC56c7ccccc7N1C5C2C3CC46O (configuration not stated)	HT29 colon	TGI	> 100 µM
CC(=O)CCCCn1c(=O)c2c(nc(Br)n2C)n(C)c1=O	HT29 colon	TGI	> 100 µM
C1CNOCCCONCCCNOCCCONC1	HT29 colon	TGI	> 100 µM

###

Test system: TK-10 renal
Experiment: NCI tumour cell line growth inhibition, 48 h
Property Name: GI50

Compound	Assay Value
COc1cc(CNCCCCCCN2C(=O)c3cccc4cccc(c34)C2=O)ccc1O	10.1 µM
CCCCCC(=O)N[C@@H](c1ccco1)[C@@H](O)C(=O)O[C@H]1C[C@@]2(O)[C@@H](OC(=O)c3ccccc3)[C@@H]3[C@]4(OC(C)=O)CO[C@@H]4C[C@H](O)[C@@]3(C)C(=O)[C@H](OC(C)=O)C(=C1C)C2(C)C	0.0275 µM
CN1CCN(CC(=O)N(C)c2ccc(N=C(c3ccccc3)c3c(O)[nH]c4ccc(C#N)cc34)cc2)CC1	10.5 µM
COc1cc(-c2cc(/C=C/C(=O)c3ccc(F)c(F)c3)[nH]n2)cc(OC)c1OC	2.29 µM
Clc1nccc2c(-c3csc(-c4c[nH]c5ccc(Br)cc45)n3)c[nH]c12	4.16 µM
N#CCn1c(=O)c(Oc2ccc(F)cc2F)cc2cnc(NC3CCOCC3)nc21	> 25 µM
NC1NC=NC2C1N=CN2C1OC(CO)C2[O][Sn][O]C21 (configuration not stated)	> 100 µM
